Test: Solubility of the compound
Type: physicochemical
VALUE_KIND: solubility
Give the figure together with its unit, number first.

Query: Consider the compound COc1ccc(C)c(OC(CCN2CCC(n3c(=O)n(Cc4ncn[nH]4)c4ccccc43)CC2)C(C)C)c1.Cl (single isomer, unassigned; (+)) and give its measured solubility.
Response: 4 µg/mL

Query: Param item = COc1ccc(C)c(OC(CCN2CCC(n3c(=O)n(Cc4c[nH]cn4)c4ccccc43)CC2)C(C)C)c1 (configuration not stated) ; retrieve measured solubility.
Response: 200 µg/mL
